Tested on: CD2F1 mice, L1210 leukemia ip, survival T/C
ASSAY EXPLANATION: NCI In Vivo Anticancer Drug Screen. Data for tumor model L1210 Leukemia (intraperitoneal) in CD2F1 (CDF1) mice
EXPERIMENTAL CONDITIONS: endpoint: mean survival time; dose: 400.0 mg/kg/injection; schedule: Q04DX003 (ip); vehicle: saline with Tween-80
Inconclusive results and toxic doses are left out. How the source made its calls: active means survival T/C of 150% or more; inactive means T/C below 125% in these data.
Pick one and only one: yes (1) (active), no (0) (inactive)

CCN(CC)C(=O)/C=C/c1ccccc1 | no (0)
O=C(Nc1cc(S(=O)(=O)O)ccc1Oc1ccccc1Cl)Nc1cc(S(=O)(=O)O)ccc1Oc1ccccc1Cl | no (0)
O=C(Nc1ccc(CCO)cc1)Nc1ccc(F)c([N+](=O)[O-])c1 | no (0)
CN(C)c1ccc(-c2nnc(-c3ccc(N(C)C)cc3)nn2)cc1 | no (0)
c1ccc2c(c1)Cc1c(NC3=NCCO3)cccc1-2 | no (0)
CCOC(=O)C(C(=O)OCC)C(=O)C(C)C | no (0)
[C-]#[N+]CCS(=O)(=O)CC[N+]#[C-] | no (0)
CC(C)(C)S(=O)(=O)C(C)(C)C | no (0)

Query: Could you kindly confirm the outcome this assay logged for CCCCNC(=O)Nc1ccc(C(=O)OCCCC)cc1 ?
Reply: no (0)

Query: Could you kindly confirm the outcome this assay logged for CC(=O)CC(=O)C(F)(F)F.CC(=O)CC(=O)C(F)(F)F.CC(=O)CC(=O)C(F)(F)F.[Sm] ?
Reply: no (0)

Query: Could you kindly confirm the outcome this assay logged for CSc1ccc(O)c(C)c1 ?
Reply: no (0)

Query: Could you kindly confirm the outcome this assay logged for CCCCCCCCCCCCS ?
Reply: no (0)

Query: Could you kindly confirm the outcome this assay logged for CO[Si](c1ccccc1)(c1ccccc1)c1ccc(Br)cc1 ?
Reply: no (0)

Query: Could you kindly confirm the outcome this assay logged for COc1ccc(Nc2ccccc2Cl)c(C(=O)O)c1 ?
Reply: no (0)

Query: Could you kindly confirm the outcome this assay logged for CN(C)NC(=O)CC(NCc1ccccc1)C(=O)O (centres undefined) ?
Reply: no (0)

Query: Could you kindly confirm the outcome this assay logged for Cc1nc(/N=C(\N)Nc2ccc(Cl)c(Cl)c2)[nH]c(=O)c1Cc1ccccc1 ?
Reply: no (0)

Query: Could you kindly confirm the outcome this assay logged for Cc1c(F)c(F)c(C(=O)O)c(F)c1F ?
Reply: no (0)

---

Entries and their measured T/C follow.
System: CD2F1 mice, L1210 leukemia ip, survival T/C
ASSAY EXPLANATION: NCI In Vivo Anticancer Drug Screen. Data for tumor model L1210 Leukemia (intraperitoneal) in CD2F1 (CDF1) mice
EXPERIMENTAL CONDITIONS: endpoint: mean survival time; dose: 100.0 mg/kg/injection; schedule: Q04DX003 (ip); vehicle: saline with Tween-80; higher = longer survival
Method: The antitumor activity of compounds was measured in mice bearing transplantable tumors. Survival or tumor size were measured and the results are expressed as the measurement made in the treated group (T) divided by the measurement made in the vehicle treated control group (C). The tumor model used in this assay is L1210 Leukemia (intraperitoneal) in CD2F1 (CDF1) mice
Inconclusive results and toxic doses are left out.

// below: answered compounds
COc1ccc(CNC(C)(C#N)c2ccccc2)cc1OC (stereo not given) | 107 % of control
CC1CCN(Cc2c(COc3ccc(Cl)cc3)n(C)c3ccccc23)CC1 | 87 % of control
CCc1cc(C)cc(OC(=O)Nc2ccc(Cl)cc2)c1 | 107 % of control
CCCCCCCCN(c1ccc(I)cc1)S(=O)(=O)c1ccc(C)cc1 | 94 % of control
COc1cc2c(cc1OC)C1CC(=O)C3=C(CCCC3)N1CC2 (stereo not given) | 101 % of control

Note to self: T/C recorded for CCOC(=O)CCC(=O)CC(O)(C(F)(F)F)C(F)(F)Cl (stereo not given) was 86 % of control

Note to self: T/C recorded for CS(=O)(=O)C(=Cc1ccccc1Cl)S(C)(=O)=O was 103 % of control

Note to self: T/C recorded for COc1ccc(NC(=O)Nc2ccc(C(C)C)cc2)cc1 was 93 % of control

---

Tested on: CD2F1 mice, L1210 leukemia ip, survival T/C
ASSAY EXPLANATION: NCI In Vivo Anticancer Drug Screen. Data for tumor model L1210 Leukemia (intraperitoneal) in CD2F1 (CDF1) mice
EXPERIMENTAL CONDITIONS: endpoint: mean survival time; dose: 100.0 mg/kg/injection; schedule: Q04DX002 (ip); vehicle: saline with Tween-80; higher = longer survival
Toxic doses and inconclusive results are not listed.
MEASURED QUANTITY: T/C

// below: answered compounds
CC(C)C(O)(c1ccccc1)C(O)(c1ccccc1)C(C)C (centres undefined) | 96 % of control
CC1(C)C(=O)C(Cl)C(c2ccccc2)=C1c1ccccc1 (centres undefined) | 101 % of control
Clc1ccccc1P(c1ccccc1)c1ccccc1 | 100 % of control

Note to self: T/C recorded for CCCCCCCCCCCOc1ccc(Cl)cc1Cl was 90 % of control

---

System: CD2F1 mice, L1210 leukemia ip, survival T/C
ASSAY EXPLANATION: NCI In Vivo Anticancer Drug Screen. Data for tumor model L1210 Leukemia (intraperitoneal) in CD2F1 (CDF1) mice
EXPERIMENTAL CONDITIONS: endpoint: mean survival time; dose: 200.0 mg/kg/injection; schedule: Q01DX005 (ip); vehicle: water
Inconclusive results and toxic doses are left out. Rule for the calls: active = survival T/C of 150% or more; inactive = T/C below 125% in these data.
Pick one and only one: active, inactive

Reference set, count: 3
Nc1ncnc2cc3ncn(C4OC(CO)C(O)C4O)c3cc12 (centres undefined) | inactive
CC(=O)OCC1OC(n2ncc3c(Cl)ncnc32)C(OC(C)=O)C1OC(C)=O (centres undefined) | inactive
O=P1(N(CCCl)CCCl)NCCCO1 (centres undefined) | active

Query: Could you kindly confirm the outcome this assay logged for Cn1c(-[n+]2ccccc2)nc2c1c(=O)[nH]c(=O)n2C ?
Reply: inactive

---

System: CD2F1 mice, L1210 leukemia ip, survival T/C
ASSAY EXPLANATION: NCI In Vivo Anticancer Drug Screen. Data for tumor model L1210 Leukemia (intraperitoneal) in CD2F1 (CDF1) mice
EXPERIMENTAL CONDITIONS: endpoint: mean survival time; dose: 400.0 mg/kg/injection; schedule: Q01DX001 (ip); vehicle: Klucel (hydroxypropylcellulose) (HPC)
Procedure: The antitumor activity of compounds was measured in mice bearing transplantable tumors. Survival or tumor size were measured and the results are expressed as the measurement made in the treated group (T) divided by the measurement made in the vehicle treated control group (C). The tumor model used in this assay is L1210 Leukemia (intraperitoneal) in CD2F1 (CDF1) mice
Inconclusive results and toxic doses are left out. How the source made its calls: active means survival T/C of 150% or more; inactive means T/C below 125% in these data.
Pick one and only one: Y for active, N for inactive

Reference set, count: 3
Clc1ccc(-c2nc3ccccc3s2)cc1 | N
N#Cc1cc(N2CC2)c([N+](=O)[O-])cc1[N+](=O)[O-] | N
NC/C(=N\O)c1ccc(-c2ccccc2)cc1 | N

Below: the item to evaluate.
Query: Could you kindly confirm the outcome this assay logged for CCOC(=O)Nc1cc(NCCCCc2ccccc2)c2[nH]cnc2n1 ?
Reply: N

---

Tested on: CD2F1 mice, L1210 leukemia ip, survival T/C
ASSAY EXPLANATION: NCI In Vivo Anticancer Drug Screen. Data for tumor model L1210 Leukemia (intraperitoneal) in CD2F1 (CDF1) mice
EXPERIMENTAL CONDITIONS: endpoint: mean survival time; dose: 400.0 mg/kg/injection; schedule: Q01DX001 (ip); vehicle: saline with Tween-80; higher = longer survival
Method: The antitumor activity of compounds was measured in mice bearing transplantable tumors. Survival or tumor size were measured and the results are expressed as the measurement made in the treated group (T) divided by the measurement made in the vehicle treated control group (C). The tumor model used in this assay is L1210 Leukemia (intraperitoneal) in CD2F1 (CDF1) mice
Toxic doses and inconclusive results are not listed.
MEASURED QUANTITY: T/C

// below: answered compounds
CCC(=O)NCCc1ccccc1 | 97 % of control
Cc1cc(NC(=O)Oc2ccc([N+](=O)[O-])cc2)ccc1S(=O)(=O)F | 98 % of control

Note to self: T/C recorded for O=C1C=C(N2C3C4CCC(C4)C32)C(=O)C=C1c1ccccc1 (stereo not drawn) was 102 % of control

Note to self: T/C recorded for C=C(Br)CNC(=O)NCC(=C)Br was 101 % of control

Note to self: T/C recorded for COCCNc1ccc([N+](=O)[O-])cc1[N+](=O)[O-] was 96 % of control

Note to self: T/C recorded for O=C(N/N=C/c1ccc2c(c1)CCC2)c1cccc([N+](=O)[O-])c1 was 101 % of control

Note to self: T/C recorded for NC(CCc1ccc2c(c1)OCO2)C(=O)O (stereo not drawn) was 90 % of control

Note to self: T/C recorded for C/C=C/C=C/C(=O)c1cc(C#N)c(OC)cc1O was 89 % of control

Note to self: T/C recorded for COC(=O)C1C2CC(OS(=O)(=O)c3ccc(C)cc3)C(C2)C1C(=O)OC (stereo not drawn) was 92 % of control

Note to self: T/C recorded for O=S(=O)(NC1CCCC2C=CC=CC21)c1ccccc1 (stereo not drawn) was 96 % of control

Note to self: T/C recorded for CCOc1ccc(-n2c(=O)c(N=Nc3ccccc3OC)c(O)n(-c3ccc(C)cc3)c2=S)cc1 was 97 % of control

Note to self: T/C recorded for CC1Cc2c(N)cccc2C1=O (stereo not drawn) was 91 % of control

Note to self: T/C recorded for COC(=O)c1ccc(C)c(NC2=NCCO2)c1 was 93 % of control
